Each recorded value in this set is attributed to PubChem BioAssay AID624319.

target: Sentrin-specific protease 8 (Homo sapiens); assay: human SENP8 protease inhibitors, confirmation, biochemical, Nedd8 protein substrate, single concentration (AID 624319); conditions: purified SENP8, Nedd8-AMC/pro-Nedd8 cleavage fluorescence, 30 min; at 25 µM; stronger effect = higher value
The whole screen tested about 1,400 compounds, of which about 210 (15%) were called active. Only a sample is shown.
reportedProperty: inhibition

Some molecules with recorded inhibition:
[[record]]
molecule = "c1coc(-c2nc3nc4ccccc4n3nc2-c2ccco2)c1"
targetortestsystem = "Sentrin-specific protease 8 (Homo sapiens)"
reportedresult = "20.6% (inactive)"

[[record]]
molecule = "CCCC1CCC(=NNC(=S)NCCc2ccccc2)CC1 (stereo unspecified)"
targetortestsystem = "Sentrin-specific protease 8 (Homo sapiens)"
reportedresult = "5.71% (inactive)"

[[record]]
molecule = "CCCCCCCCCCCCCCCC(=O)OC/C=C(C)/C=C/C=C(C)/C=C/C1=C(C)CCCC1(C)C"
targetortestsystem = "Sentrin-specific protease 8 (Homo sapiens)"
reportedresult = "4.1% (inactive)"


List reported inhibition for each of these molecules:
1. COc1ccc(Br)cc1/C=N/Nc1ccc(S(=O)(=O)Nc2ccccc2C(=O)O)cc1[N+](=O)[O-]
2. Cc1cc(C)nc(N/N=C/c2ccc([N+](=O)[O-])o2)n1
3. COc1ccc(-c2nnco2)cc1OC

1. 21.5% (inactive)
2. 22.3% (inactive)
3. 14.3% (inactive)

---

target: Sentrin-specific protease 8 (Homo sapiens) (UniProt Q96LD8); assay: human SENP8 protease inhibitors, confirmation, biochemical, Nedd8 protein substrate, single concentration (AID 624319); details: purified SENP8, Nedd8-AMC/pro-Nedd8 cleavage fluorescence, 30 min; at 25 µM; stronger effect = higher value
Sequence (Q96LD8 whole entry, looked up): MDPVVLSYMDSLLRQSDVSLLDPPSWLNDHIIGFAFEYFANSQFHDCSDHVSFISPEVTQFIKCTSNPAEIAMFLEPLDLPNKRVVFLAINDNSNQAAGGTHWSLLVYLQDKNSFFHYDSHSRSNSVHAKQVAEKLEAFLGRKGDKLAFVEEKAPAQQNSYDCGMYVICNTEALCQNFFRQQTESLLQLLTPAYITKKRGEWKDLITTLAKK
Hit rate of the full screen: of about 1,400 compounds, about 210 (15%) were called active. Only a sample is shown.
# cutoff 10% applies to inhibition; >= gives rule met, < gives rule not met

[[record]]
molecule = "CCN1CCC2(CC1)N=C(c1ccc(F)cc1)C(=S)N2C(=O)c1ccc(C)cc1"
targetortestsystem = "Sentrin-specific protease 8 (Homo sapiens) (UniProt Q96LD8)"
answerlabel = "rule met"

[[record]]
molecule = "COC(=O)Cn1c2ccc(C)cc2c2nc(C)sc21"
targetortestsystem = "Sentrin-specific protease 8 (Homo sapiens) (UniProt Q96LD8)"
answerlabel = "rule met"

[[record]]
molecule = "O=C(c1ccccc1)N1CCN(c2ccc([N+](=O)[O-])c(NCc3ccco3)c2)CC1"
targetortestsystem = "Sentrin-specific protease 8 (Homo sapiens) (UniProt Q96LD8)"
answerlabel = "rule met"

[[record]]
molecule = "O=C1Nc2ccc([N+](=O)[O-])cc2C1=Nc1cccc(CO)c1"
targetortestsystem = "Sentrin-specific protease 8 (Homo sapiens) (UniProt Q96LD8)"
answerlabel = "rule met"

[[record]]
molecule = "O=C(COc1ccccc1)N1CCc2ccccc2C1"
targetortestsystem = "Sentrin-specific protease 8 (Homo sapiens) (UniProt Q96LD8)"
answerlabel = "rule met"

[[record]]
molecule = "CC(C)CC(=O)N=C1SC2CS(=O)(=O)CC2N1CCc1ccccc1 (stereo not drawn)"
targetortestsystem = "Sentrin-specific protease 8 (Homo sapiens) (UniProt Q96LD8)"
answerlabel = "rule not met"


Is reported inhibition greater than or equal to 10% here: CCN=C1SC(CC(=O)Nc2ccc(C)cc2)C(=O)N1CC (stereo not drawn) rule met

Is reported inhibition greater than or equal to 10% here: CC1(C)Cc2cccc(OCC(=O)Nc3nccs3)c2O1 rule not met
